All figures here come from ChEMBL document CHEMBL4325916.

# IC50 annotations
target: Phospholipase D2 (Homo sapiens, UniProt O14939); test: Inhibition of GFP-fused PLD2 (unknown origin) expressed in HEK293 cells by cellular assay; format: cell-based
Sequence (O14939 whole entry, the tested form may be a part): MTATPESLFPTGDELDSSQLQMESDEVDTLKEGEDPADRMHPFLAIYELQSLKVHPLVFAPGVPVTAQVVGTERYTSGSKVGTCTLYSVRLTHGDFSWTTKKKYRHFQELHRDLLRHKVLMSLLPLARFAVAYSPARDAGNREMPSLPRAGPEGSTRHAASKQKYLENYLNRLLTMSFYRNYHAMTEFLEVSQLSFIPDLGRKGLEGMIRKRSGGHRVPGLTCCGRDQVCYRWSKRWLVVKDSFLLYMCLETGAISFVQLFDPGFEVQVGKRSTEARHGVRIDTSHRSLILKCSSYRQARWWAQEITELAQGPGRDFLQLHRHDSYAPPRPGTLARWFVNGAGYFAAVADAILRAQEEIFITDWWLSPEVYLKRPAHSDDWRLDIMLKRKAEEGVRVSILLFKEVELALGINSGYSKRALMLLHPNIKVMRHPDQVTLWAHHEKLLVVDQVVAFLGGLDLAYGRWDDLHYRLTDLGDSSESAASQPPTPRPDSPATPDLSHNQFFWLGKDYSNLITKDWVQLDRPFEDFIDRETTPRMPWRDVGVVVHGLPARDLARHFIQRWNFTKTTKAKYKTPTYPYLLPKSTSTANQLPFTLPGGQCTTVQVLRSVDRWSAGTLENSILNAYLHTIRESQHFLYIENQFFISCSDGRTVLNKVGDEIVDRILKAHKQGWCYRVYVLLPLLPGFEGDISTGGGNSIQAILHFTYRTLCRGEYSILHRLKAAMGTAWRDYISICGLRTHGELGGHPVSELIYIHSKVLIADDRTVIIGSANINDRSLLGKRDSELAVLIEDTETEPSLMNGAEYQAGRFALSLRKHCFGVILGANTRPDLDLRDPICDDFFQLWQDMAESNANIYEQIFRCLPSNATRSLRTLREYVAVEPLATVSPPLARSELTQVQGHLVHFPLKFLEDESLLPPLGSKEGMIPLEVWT
Report only the number, with the unit nM understood.

These recorded examples may help you get a feel for the data.
| sample smiles | tested system | parameter | result value |
| --- | --- | --- | --- |
| C[C@@H](CN1CCC2(CC1)C(=O)NC[C@@H]2c1ccc(F)cc1)NC(=O)c1cc2ccccc2[nH]1 | Phospholipase D2 (Homo sapiens, UniProt O14939) | IC50 | 140 |
| C[C@@H](CN1CCC2(CC1)C(=O)NC[C@H]2c1ccc(F)cc1)NC(=O)c1cc2ccccc2[nH]1 | Phospholipase D2 (Homo sapiens, UniProt O14939) | IC50 | 12 |

// sample "O=C(NCCN1CCC2(CC1)C(=O)NC[C@H]2c1ccc(F)cc1)c1cc2ccccc2[nH]1" , its IC50 was 2.5
